# System Tested: Casein kinase I isoform gamma-3 (Homo sapiens) (UniProt Q9Y6M4)
# Sequence (Q9Y6M4 whole entry, looked up, canonical isoform): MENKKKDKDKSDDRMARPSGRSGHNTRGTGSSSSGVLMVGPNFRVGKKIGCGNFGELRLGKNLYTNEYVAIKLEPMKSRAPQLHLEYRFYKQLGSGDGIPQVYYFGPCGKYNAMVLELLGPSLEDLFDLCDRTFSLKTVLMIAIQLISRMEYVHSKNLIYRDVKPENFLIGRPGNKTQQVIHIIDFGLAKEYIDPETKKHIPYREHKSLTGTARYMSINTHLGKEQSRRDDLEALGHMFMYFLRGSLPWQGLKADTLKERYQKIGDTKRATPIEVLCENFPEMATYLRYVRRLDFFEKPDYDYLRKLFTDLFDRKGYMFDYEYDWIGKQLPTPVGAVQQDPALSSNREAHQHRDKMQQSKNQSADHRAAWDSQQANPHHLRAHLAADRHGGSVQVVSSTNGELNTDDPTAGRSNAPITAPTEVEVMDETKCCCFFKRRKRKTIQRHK
# Test Conditions: at 1 µM
Here the recorded inhibition is given for each entry.
Kindly provide the numeric value in % only, without the unit symbol.

Worked set:
CN1CCN(C(=O)c2ccc(NC(=O)Nc3ccc(N(C)c4ccnc(Nc5ccc(CS(C)(=O)=O)cc5)n4)cc3)cc2)CC1 = 1.29
COc1cc2ncnc(Nc3ccc4c(cnn4Cc4ccccc4)c3)c2cc1OC = 1.75
NS(=O)(=O)c1ccc(NC=C2C(=O)Nc3ccc4ncsc4c32)cc1 = 26.3
COC(=O)Nc1nc2cc(Oc3ccc(NC(=O)Nc4cccc(Br)c4)cc3)ccc2[nH]1 = 1.82
Nc1ccc(C#Cc2cncnc2Nc2ccc(OCc3cccc(F)c3)c(Cl)c2)cc1 = 2.75

### Prompt Please provide the recorded inhibition for COc1cc2ncn(-c3cc(OCc4ccccc4S(C)(=O)=O)c(C#N)s3)c2cc1OC , tested on Casein kinase I isoform gamma-3 (Homo sapiens) (UniProt Q9Y6M4).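 Note: mean inhibition of CK1-g3, GSK PKIS screen.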
### Response 2.61

* * *

# System Tested: Sphingosine kinase 2 (Homo sapiens) (UniProt Q9NRA0);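 note: values reported as mean percent inhibition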
# Sequence (Q9NRA0 whole entry): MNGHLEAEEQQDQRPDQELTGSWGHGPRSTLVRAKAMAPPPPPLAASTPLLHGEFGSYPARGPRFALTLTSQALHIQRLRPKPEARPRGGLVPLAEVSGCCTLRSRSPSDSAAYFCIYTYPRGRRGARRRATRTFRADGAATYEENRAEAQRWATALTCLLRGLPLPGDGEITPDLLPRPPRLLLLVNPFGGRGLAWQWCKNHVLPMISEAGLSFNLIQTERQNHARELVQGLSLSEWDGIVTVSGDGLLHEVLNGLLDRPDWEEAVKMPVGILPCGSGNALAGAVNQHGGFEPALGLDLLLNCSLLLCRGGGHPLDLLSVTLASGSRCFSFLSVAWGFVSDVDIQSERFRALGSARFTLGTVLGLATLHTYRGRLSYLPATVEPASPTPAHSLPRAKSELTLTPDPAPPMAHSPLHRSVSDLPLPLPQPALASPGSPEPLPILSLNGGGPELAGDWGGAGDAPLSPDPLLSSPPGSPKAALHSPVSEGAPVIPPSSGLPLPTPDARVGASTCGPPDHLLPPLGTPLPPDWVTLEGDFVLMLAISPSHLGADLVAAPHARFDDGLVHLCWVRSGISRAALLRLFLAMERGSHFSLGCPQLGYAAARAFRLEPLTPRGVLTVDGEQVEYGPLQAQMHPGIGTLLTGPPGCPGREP
# Test Conditions: at 0.1 µM
Property Name: inhibition (%)
Kindly provide the numeric value in % only, without the unit symbol.

Worked set:
O=C(Nc1ccc(Oc2ccc3[nH]c(NC(=O)c4ccco4)nc3c2)cc1)Nc1cc(C(F)(F)F)ccc1F = 0.7
NC(=O)c1cccc(Nc2nccc(Nc3cccc(F)c3)n2)c1 = 0
NC(=O)c1sc(-n2cnc3ccccc32)cc1OCc1ccccc1Br = 1.77
Nc1nccc(-c2c(-c3ccc(F)cc3)nn3cc(C(F)(F)F)ccc23)n1 = -0.68
CCS(=O)(=O)c1ccc(OC)c(Nc2ncc(-c3cccc(OC)c3)o2)c1 = 0

### Prompt Can you look up the measured inhibition of NS(=O)(=O)c1ccc(NC=C2C(=O)Nc3ccc4ncsc4c32)cc1 for me?
### Response 1.68

* * *

# System Tested: RAF proto-oncogene serine/threonine-protein kinase (Homo sapiens) (UniProt P04049);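 note: values are mean CRAF kinase inhibition from profiling of the GSK Published Kinase Inhibitor Set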
# Sequence (P04049 whole entry): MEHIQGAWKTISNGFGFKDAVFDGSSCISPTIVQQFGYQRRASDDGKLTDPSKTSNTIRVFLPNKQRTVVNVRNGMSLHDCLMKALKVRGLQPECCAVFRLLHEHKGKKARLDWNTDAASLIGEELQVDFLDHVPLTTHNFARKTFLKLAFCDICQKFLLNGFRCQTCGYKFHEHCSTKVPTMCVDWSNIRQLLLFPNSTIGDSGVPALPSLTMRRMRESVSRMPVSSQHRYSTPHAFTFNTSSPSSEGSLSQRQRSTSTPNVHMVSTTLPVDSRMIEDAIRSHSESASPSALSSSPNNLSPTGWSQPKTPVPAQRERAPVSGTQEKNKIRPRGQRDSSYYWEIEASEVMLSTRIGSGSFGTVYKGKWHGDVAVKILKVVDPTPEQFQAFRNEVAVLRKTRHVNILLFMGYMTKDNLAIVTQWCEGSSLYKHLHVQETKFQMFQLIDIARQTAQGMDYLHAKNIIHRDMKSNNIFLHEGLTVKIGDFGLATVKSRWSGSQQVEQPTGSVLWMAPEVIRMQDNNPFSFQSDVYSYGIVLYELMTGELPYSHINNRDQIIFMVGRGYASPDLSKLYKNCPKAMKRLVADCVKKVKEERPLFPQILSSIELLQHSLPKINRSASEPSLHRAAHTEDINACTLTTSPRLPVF
# Test Conditions: at 0.1 µM
Property Name: inhibition (%)
Kindly provide the numeric value in % only, without the unit symbol.

CCOc1nccc2c1nc(-c1nonc1N)n2CC = -1.34
N#Cc1c(NC(=O)c2ccccc2F)sc2c1CCCC2 = -2.08
Cc1ccc2c(c1)/C(=N/Nc1ccc(S(N)(=O)=O)cc1)C(=O)N2 = 0.26

### Prompt Can you look up the measured inhibition of Cc1ccc(C(=O)NC2CC2)cc1-c1ccc2[nH]ncc2c1 for me?
### Response -2.17

### Prompt Can you look up the measured inhibition of NC(=O)c1cccc(Nc2nccc(Nc3cccc(F)c3)n2)c1 for me?
### Response 0.33

### Prompt Can you look up the measured inhibition of COc1cccc(-n2ncc3c(N/N=C/c4ccc(C)cc4)ncnc32)c1 for me?
### Response 7.72

### Prompt Can you look up the measured inhibition of COC(=O)c1cncc(/C=C/c2c(C)cc(O)cc2C)c1 for me?
### Response 1.93

### Prompt Can you look up the measured inhibition of CCS(=O)(=O)c1ccc(OC)c(Nc2nccc(N(C)c3ccc4c(C)n[nH]c4c3)n2)c1 for me?
### Response 1.8

* * *

# System Tested: Serine/threonine-protein kinase Sgk1 (Homo sapiens)
# Test Conditions: at 0.1 µM
# Description: GSK_PKIS: SGK1 mean inhibition at 0.1 uM [Nanosyn]
Property Name: inhibition (%)
Kindly provide the numeric value in % only, without the unit symbol.

### Prompt Can you look up the measured inhibition of c1ccc(Nc2ncc(-c3ccccc3)o2)cc1 for me?
### Response 2.66

### Prompt Can you look up the measured inhibition of ON=C1CCc2cc(-c3nc(C4CCNCC4)[nH]c3-c3ccncc3)ccc21 for me?
### Response 0.64

### Prompt Can you look up the measured inhibition of Cc1ccc(C(=O)NC2CC2)cc1-c1ccc2[nH]ncc2c1 for me?
### Response -2.34

### Prompt Can you look up the measured inhibition of O=C1Nc2ccc(-c3cccnc3)cc2C1=Cc1cc(Br)c(O)c(Br)c1 for me?
### Response 3.01

### Prompt Can you look up the measured inhibition of Cc1cc(Cl)cc2c1NC(=O)C2=NNc1ccc(S(N)(=O)=O)cc1 for me?
### Response 2.17

### Prompt Can you look up the measured inhibition of COc1cc2ncnc(Nc3ccc(C)c(O)c3)c2cc1OC for me?
### Response 2.84
